Target under test: human TLR2 (Homo sapiens, UniProt O60603)
Construct: expressed in transfected cells; host or cells: HEK-Blue hTLR2
Sequence (O60603 21-784): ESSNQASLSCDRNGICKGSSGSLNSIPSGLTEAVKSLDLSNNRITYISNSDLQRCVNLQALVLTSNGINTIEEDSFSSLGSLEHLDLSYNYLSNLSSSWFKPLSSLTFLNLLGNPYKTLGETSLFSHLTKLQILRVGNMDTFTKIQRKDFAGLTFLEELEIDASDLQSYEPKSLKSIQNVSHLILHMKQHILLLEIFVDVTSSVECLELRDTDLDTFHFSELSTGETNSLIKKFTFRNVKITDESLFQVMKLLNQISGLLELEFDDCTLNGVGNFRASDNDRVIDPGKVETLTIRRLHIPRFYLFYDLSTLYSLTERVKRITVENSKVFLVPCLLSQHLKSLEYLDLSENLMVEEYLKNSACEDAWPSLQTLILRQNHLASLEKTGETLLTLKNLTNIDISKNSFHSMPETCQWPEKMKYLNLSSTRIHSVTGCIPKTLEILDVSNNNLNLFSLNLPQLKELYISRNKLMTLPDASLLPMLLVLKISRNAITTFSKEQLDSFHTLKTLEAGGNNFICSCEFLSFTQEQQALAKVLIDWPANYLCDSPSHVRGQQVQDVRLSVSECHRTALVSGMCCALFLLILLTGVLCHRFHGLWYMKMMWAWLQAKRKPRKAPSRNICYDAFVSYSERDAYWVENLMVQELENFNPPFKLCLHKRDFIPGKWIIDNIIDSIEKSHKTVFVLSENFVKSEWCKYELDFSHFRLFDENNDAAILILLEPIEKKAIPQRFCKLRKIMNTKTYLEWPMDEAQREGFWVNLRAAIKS
Sequence (Q9Y2C9 32-796 partner): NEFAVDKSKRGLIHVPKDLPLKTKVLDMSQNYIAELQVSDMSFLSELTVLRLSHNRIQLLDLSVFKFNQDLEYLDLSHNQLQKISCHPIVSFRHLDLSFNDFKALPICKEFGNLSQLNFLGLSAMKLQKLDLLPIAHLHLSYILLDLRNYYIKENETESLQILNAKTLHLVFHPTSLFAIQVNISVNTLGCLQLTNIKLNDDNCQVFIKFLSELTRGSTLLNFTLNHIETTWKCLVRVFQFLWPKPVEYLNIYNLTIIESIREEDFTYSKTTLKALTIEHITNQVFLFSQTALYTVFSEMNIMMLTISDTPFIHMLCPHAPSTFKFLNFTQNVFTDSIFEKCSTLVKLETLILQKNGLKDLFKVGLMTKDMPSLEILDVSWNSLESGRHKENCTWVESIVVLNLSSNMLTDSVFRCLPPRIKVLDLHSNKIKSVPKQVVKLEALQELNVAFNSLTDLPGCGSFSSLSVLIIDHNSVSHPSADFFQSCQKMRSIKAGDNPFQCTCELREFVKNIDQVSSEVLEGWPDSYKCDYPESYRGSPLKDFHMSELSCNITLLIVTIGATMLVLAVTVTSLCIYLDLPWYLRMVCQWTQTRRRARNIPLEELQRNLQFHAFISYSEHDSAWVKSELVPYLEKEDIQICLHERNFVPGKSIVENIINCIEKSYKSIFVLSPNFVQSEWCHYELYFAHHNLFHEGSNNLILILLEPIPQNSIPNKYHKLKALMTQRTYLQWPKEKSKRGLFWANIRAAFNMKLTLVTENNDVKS
Protocol: HEK-Blue hTLR2 Dose Response (NF-κB SEAP reporter)
Assay type: cell-based
Experimental context: 500 pg/mL
Readout label: optical density (650 nm), Average
One number for each entry.

- Compound: "CCCCCCCCCCCCCCC(C)C(=O)OCC[C@H](CSC[C@H](N)C(=O)N[C@@H](CO)C(=O)NCCOCCOCCOCCOCCOCCOCCOCCOCCOCCOCCOCCOCCOCCOCCOCCOCCOCCOCCOCCOCCOCCOCCOCCOCCOCCOCCOCCOCCC(=O)NCC(N)=O)OC(=O)C(C)CCCCCCCCCCCCCC (some centres unmarked)"
  optical density (650 nm), Average: 2.471

Let us move to another entry and its optical density (650 nm), Average.
Requested field: optical density (650 nm), Average. Item: CCCCCCCCCCCCCCC(C)C(=O)OC[C@H](CSC[C@H](N)C(=O)N[C@@H](CO)C(=O)NCCOCCOCCOCCOCCOCCOCCOCCOCCOCCOCCOCCOCCOCCOCCOCCOCCOCCOCCOCCOCCOCCOCCOCCOCCOCCOCCOCCOCCC(=O)NCC(N)=O)OC(=O)C(C)CCCCCCCCCCCCCC (some centres unmarked) 2.611

* * *

Target under test: human TLR2 (Homo sapiens, UniProt O60603)
Construct: expressed in transfected cells; host or cells: HEK-Blue hTLR2
Protocol: HEK-Blue hTLR2 Dose Response (NF-κB SEAP reporter)
Type: cell-based
Experimental context: 0.12 pg/mL
Rule: optical density (650 nm), Average of 1 or more gives Fulfilled; anything lower gives Not fulfilled.

Previously resolved entries follow.
- Molecule: "CCCCCCCCCCCCCCC(C)C(=O)OCC[C@H](CSC[C@H](N)C(=O)N[C@@H](CO)C(=O)NCCOCCOCCOCCOCCOCCOCCOCCOCCOCCOCCOCCOCCOCCOCCOCCOCCOCCOCCOCCOCCOCCOCCOCCOCCOCCOCCOCCOCCC(=O)NCC(N)=O)OC(=O)C(C)CCCCCCCCCCCCCC (some centres unmarked) [B12]"
  Category: "Fulfilled"
- Molecule: "CCCCCCCCCCCCCC[C@H](C)C(=O)OC[C@H](CSC[C@H](N)C(=O)N[C@@H](CO)C(=O)NCCOCCOCCOCCOCCOCCOCCOCCOCCOCCOCCOCCOCCOCCOCCOCCOCCOCCOCCOCCOCCOCCOCCOCCOCCOCCOCCOCCOCCC(=O)NCC(N)=O)OC(=O)[C@@H](C)CCCCCCCCCCCCCC [B8]"
  Category: "Fulfilled"
- Molecule: "CCCCCCCCCCCCCC[C@@H](C)C(=O)OCC[C@H](CSC[C@H](N)C(=O)N[C@@H](CO)C(=O)NCCOCCOCCOCCOCCOCCOCCOCCOCCOCCOCCOCCOCCOCCOCCOCCOCCOCCOCCOCCOCCOCCOCCOCCOCCOCCOCCOCCOCCC(=O)NCC(N)=O)OC(=O)[C@H](C)CCCCCCCCCCCCCC [B14]"
  Category: "Not fulfilled"

Given CCCCCCCCCCCCCC[C@H](C)C(=O)OCC[C@H](CSC[C@H](N)C(=O)N[C@@H](CO)C(=O)NCCOCCOCCOCCOCCOCCOCCOCCOCCOCCOCCOCCOCCOCCOCCOCCOCCOCCOCCOCCOCCOCCOCCOCCOCCOCCOCCOCCOCCC(=O)NCC(N)=O)OC(=O)[C@@H](C)CCCCCCCCCCCCCC [B16] , state whether its optical density (650 nm), Average is at least 1. Not fulfilled

Is it the case that CCCCCCCCCCCCCC[C@@H](C)C(=O)OC[C@H](CSC[C@H](N)C(=O)N[C@@H](CO)C(=O)NCCOCCOCCOCCOCCOCCOCCOCCOCCOCCOCCOCCOCCOCCOCCOCCOCCOCCOCCOCCOCCOCCOCCOCCOCCOCCOCCOCCOCCC(=O)NCC(N)=O)OC(=O)[C@H](C)CCCCCCCCCCCCCC [B6] has optical density (650 nm), Average reaching or exceeding 1? Not fulfilled

* * *

I'd appreciate it if you could supply optical density (650 nm), Average values for the items below.
Target under test: human TLR2 (Homo sapiens, UniProt O60603)
Construct: expressed in transfected cells; host or cells: HEK-Blue hTLR2
Protocol: HEK-Blue hTLR2 Dose Response (NF-κB SEAP reporter)
Format: cell-based
Experimental context: 7.81 pg/mL
Answers are plain numbers.

The following compounds have reported results that may help.
- Compound: "CCCCCCCCCCCCCCC(C)C(=O)OCC[C@H](CSC[C@H](N)C(=O)N[C@@H](CO)C(=O)NCCOCCOCCOCCOCCOCCOCCOCCOCCOCCOCCOCCOCCOCCOCCOCCOCCOCCOCCOCCOCCOCCOCCOCCOCCOCCOCCOCCOCCC(=O)NCC(N)=O)OC(=O)C(C)CCCCCCCCCCCCCC (stereo partly drawn)"
  Target under test: "human TLR2 (Homo sapiens, UniProt O60603)"
  Numeric value: 2.411
- Compound: "CCCCCCCCCCCCCC[C@@H](C)C(=O)OCC[C@H](CSC[C@H](N)C(=O)N[C@@H](CO)C(=O)NCCOCCOCCOCCOCCOCCOCCOCCOCCOCCOCCOCCOCCOCCOCCOCCOCCOCCOCCOCCOCCOCCOCCOCCOCCOCCOCCOCCOCCC(=O)NCC(N)=O)OC(=O)[C@H](C)CCCCCCCCCCCCCC"
  Target under test: "human TLR2 (Homo sapiens, UniProt O60603)"
  Numeric value: 2.562
- Compound: "CCCCCCCCCCCCCC[C@H](C)C(=O)OC[C@H](CSC[C@H](N)C(=O)N[C@@H](CO)C(=O)NCCOCCOCCOCCOCCOCCOCCOCCOCCOCCOCCOCCOCCOCCOCCOCCOCCOCCOCCOCCOCCOCCOCCOCCOCCOCCOCCOCCOCCC(=O)NCC(N)=O)OC(=O)[C@@H](C)CCCCCCCCCCCCCC"
  Target under test: "human TLR2 (Homo sapiens, UniProt O60603)"
  Numeric value: 2.565
- Compound: "CCCCCCCCCCCCCCC(C)C(=O)OC[C@H](CSC[C@H](N)C(=O)N[C@@H](CO)C(=O)NCCOCCOCCOCCOCCOCCOCCOCCOCCOCCOCCOCCOCCOCCOCCOCCOCCOCCOCCOCCOCCOCCOCCOCCOCCOCCOCCOCCOCCC(=O)NCC(N)=O)OC(=O)C(C)CCCCCCCCCCCCCC (stereo partly drawn)"
  Target under test: "human TLR2 (Homo sapiens, UniProt O60603)"
  Numeric value: 2.260

For each of the items listed, what is its optical density (650 nm), Average?
1. CCCCCCCCCCCCCC[C@H](C)C(=O)OCC[C@H](CSC[C@H](N)C(=O)N[C@@H](CO)C(=O)NCCOCCOCCOCCOCCOCCOCCOCCOCCOCCOCCOCCOCCOCCOCCOCCOCCOCCOCCOCCOCCOCCOCCOCCOCCOCCOCCOCCOCCC(=O)NCC(N)=O)OC(=O)[C@@H](C)CCCCCCCCCCCCCC
2. CCCCCCCCCCCCCC[C@@H](C)C(=O)OC[C@H](CSC[C@H](N)C(=O)N[C@@H](CO)C(=O)NCCOCCOCCOCCOCCOCCOCCOCCOCCOCCOCCOCCOCCOCCOCCOCCOCCOCCOCCOCCOCCOCCOCCOCCOCCOCCOCCOCCOCCC(=O)NCC(N)=O)OC(=O)[C@H](C)CCCCCCCCCCCCCC

1.978
2.186

* * *

I'd be grateful if you could share measured optical density (650 nm), Average for these entries.
Target under test: human TLR2 (Homo sapiens)
Construct: expressed in transfected cells; host or cells: HEK-Blue hTLR2
Protocol: HEK-Blue hTLR2 Dose Response (NF-κB SEAP reporter)
Format: cell-based
Experimental context: 31.25 pg/mL
Numbers only.

- Compound: "CCCCCCCCCCCCCCC(C)C(=O)OC[C@H](CSC[C@H](N)C(=O)N[C@@H](CO)C(=O)NCCOCCOCCOCCOCCOCCOCCOCCOCCOCCOCCOCCOCCOCCOCCOCCOCCOCCOCCOCCOCCOCCOCCOCCOCCOCCOCCOCCOCCC(=O)NCC(N)=O)OC(=O)C(C)CCCCCCCCCCCCCC (stereo partly shown)"
  optical density (650 nm), Average: 2.481
- Compound: "CCCCCCCCCCCCCCC(C)C(=O)OCC[C@H](CSC[C@H](N)C(=O)N[C@@H](CO)C(=O)NCCOCCOCCOCCOCCOCCOCCOCCOCCOCCOCCOCCOCCOCCOCCOCCOCCOCCOCCOCCOCCOCCOCCOCCOCCOCCOCCOCCOCCC(=O)NCC(N)=O)OC(=O)C(C)CCCCCCCCCCCCCC (stereo partly shown)"
  optical density (650 nm), Average: 2.457
- Compound: "CCCCCCCCCCCCCC[C@@H](C)C(=O)OC[C@H](CSC[C@H](N)C(=O)N[C@@H](CO)C(=O)NCCOCCOCCOCCOCCOCCOCCOCCOCCOCCOCCOCCOCCOCCOCCOCCOCCOCCOCCOCCOCCOCCOCCOCCOCCOCCOCCOCCOCCC(=O)NCC(N)=O)OC(=O)[C@H](C)CCCCCCCCCCCCCC"
  optical density (650 nm), Average: 2.529

# context switch: different compound, same optical density (650 nm), Average
Fill in the blank: the reported optical density (650 nm), Average of CCCCCCCCCCCCCC[C@H](C)C(=O)OC[C@H](CSC[C@H](N)C(=O)N[C@@H](CO)C(=O)NCCOCCOCCOCCOCCOCCOCCOCCOCCOCCOCCOCCOCCOCCOCCOCCOCCOCCOCCOCCOCCOCCOCCOCCOCCOCCOCCOCCOCCC(=O)NCC(N)=O)OC(=O)[C@@H](C)CCCCCCCCCCCCCC is ____. 2.652
